# Test Details: Pharmacokinetic parameters after nasal administration to sheep
# Run Parameters: sheep, plasma, 0.15 mg/kg, mean nasal bioavailability, nasal 0.15 mg/kg with 0.5% chitosan, vs i.v. AUC normalised to 0.15 mg/kg; mean, n=3
Measure: bioavailability

Q: Which bioavailability reading was recorded for the compound CN1CC[C@]23c4c5ccc(O)c4O[C@H]2[C@@H](O[C@@H]2O[C@H](C(=O)O)[C@@H](O)[C@H](O)[C@H]2O)C=C[C@H]3[C@H]1C5 [morphine-6-glucuronide] ?
A: 32.3%

----------
# Test Details: Pharmacokinetic parameters after nasal administration to sheep
# Run Parameters: sheep, plasma, 0.15 mg/kg, Tmax, nasal 0.15 mg/kg with 0.5% chitosan; individual sheep IF, JF, KF
Measure: Tmax
Returns: string containing the numeric result and its unit.

Q: Which Tmax reading was recorded for the compound CN1CC[C@]23c4c5ccc(O)c4O[C@H]2[C@@H](O[C@@H]2O[C@H](C(=O)O)[C@@H](O)[C@H](O)[C@H]2O)C=C[C@H]3[C@H]1C5 [morphine-6-glucuronide] ?
A: 15 min

----------
# Test Details: Pharmacokinetic parameters after nasal administration to sheep
# Run Parameters: sheep, plasma, 0.15 mg/kg, Apparent Volume of Distribution, nasal 0.15 mg/kg with 0.5% chitosan; corrected for bioavailable dose; individual sheep IF, JF, KF
Measure: Vd (L/kg)
Please state the figure in L/kg; there is no need to write the unit.

Q: Which Vd reading was recorded for the compound CN1CC[C@]23c4c5ccc(O)c4O[C@H]2[C@@H](O[C@@H]2O[C@H](C(=O)O)[C@@H](O)[C@H](O)[C@H]2O)C=C[C@H]3[C@H]1C5 [morphine-6-glucuronide] ?
A: 0.37

----------
# Test Details: in vivo
# Run Parameters: sheep, 0.15 mg/kg, morphine-6-glucuronide concentration (plasma)
Measure: concentration at 1 h (ng/mL)
Please state the figure in ng/mL; there is no need to write the unit.

Q: Which concentration at 1 h reading was recorded for the compound CN1CC[C@]23c4c5ccc(O)c4O[C@H]2[C@@H](O[C@@H]2O[C@H](C(=O)O)[C@@H](O)[C@H](O)[C@H]2O)C=C[C@H]3[C@H]1C5 [morphine-6-glucuronide] ?
A: 66.7

----------
# Test Details: in vivo
# Run Parameters: sheep, iv, 0.015 mg/kg, morphine-6-glucuronide concentration (plasma)
Measure: concentration at 20 min (ng/mL)
Please state the figure in ng/mL; there is no need to write the unit.

Q: Which concentration at 20 min reading was recorded for the molecule CN1CC[C@]23c4c5ccc(O)c4O[C@H]2[C@@H](O[C@@H]2O[C@H](C(=O)O)[C@@H](O)[C@H](O)[C@H]2O)C=C[C@H]3[C@H]1C5 [morphine-6-glucuronide] ?
A: 23.2

----------
# Test Details: Pharmacokinetic parameters after intravenous administration to sheep
# Run Parameters: sheep, plasma, iv, 0.015 mg/kg, Cmax, i.v. 0.015 mg/kg; individual sheep NF, OF, PF
Measure: Cmax (µg/mL)
Please state the figure in µg/mL; there is no need to write the unit.

Q: Which Cmax reading was recorded for the compound CN1CC[C@]23c4c5ccc(O)c4O[C@H]2[C@@H](O[C@@H]2O[C@H](C(=O)O)[C@@H](O)[C@H](O)[C@H]2O)C=C[C@H]3[C@H]1C5 [morphine-6-glucuronide] ?
A: 0.044
